Experiment: yeast display, Sf9 membrane polyspecificity reagent, FACS + sequencing; frameworks hold sequencing errors
Value kind: polyreactivity (PSR sort gate)

QVQLVESGGGLVQAGGSLRLSCAASGYTFFKNAMGWYRQAPGKERELVAAISYSGGRTYYADSVKGRFTISRDNAKNTVYLQMNSLKPEDTAVYYCAKATRVITDDGSYGYWGQGTQVTVSS high polyreactivity
QVQLVESGGGLVQAGGSLRLRCAASGFIFQINAMGWYRQAPGKEREFVAAISRSVGSTSYADSVKGRFTISRDNAKNTVYLQMNSLKPEDTAVYYCNAAQRKRKGPYDYWGQGTQVTVSS high polyreactivity

----------
Assay: yeast display, Sf9 membrane polyspecificity reagent, FACS + sequencing; frameworks hold sequencing errors
Value kind: polyreactivity (PSR sort gate)

As a guide, the following entries are already answered.
QVQLVESGGGLVQAGGSLRLICAASGSTFIWNSMGWYRQAPGKERELGATITGSGDRTTYADSVKGRFTISRDNAKNTVYLQMNSLKPEDTAVYYCAGDAYRWWVRYDYWGQGTQVTVSS low polyreactivity
QVQLVESGGGLVQAGCSLRLSCAASGRIFRYYAMGWYRQAPGKERELVAAISWSGGSTYYADSVKGRFTISRDNAKNTVYLQMNSLKPEYTAVYYCAARYSLKGGRYDYWGQGTQVTVSS high polyreactivity
QVQLVESGGGLVQAGGSLRLSCAASGRIFTRYTMGWYRQAPGKERELVAAISSSDSSTYYADSVKGRFTISRDNAKNTVYLQMNSLKPEDTAVYYCNADRLFYEIYDYGAVRIGYDYWGQGTQVTVSS low polyreactivity
QVQLVESGAGLVQAGGSLRLSCAASGITFSYYSMGWYRQAPGKERELVAVISGSGSTTSYADSVKGRFTISRDNAKNTVYLQMNSLKPEDTAVYYCAADGGWRPEYYYWGQGTQVTVSS low polyreactivity

Q. Given QVQLVESGGGLVQAGGSLRLSCAASGSTFSGYAMGWYSQAPGKERELVAAISWSGGRTYYADSVNGRFTISRDNAKNTVYLQMNSLKPEDTAVYYCDAVRKSAYEYWGQGTQVTVSS , state its recorded polyreactivity (PSR sort gate).
A. high polyreactivity

Q. Item QVQLVESGGGLVQAGGSLRLICAASGGTFRAYVMGWYTQAPGKERELVAAISRSGTRTYYSDSVKGRFTISRDNAKNTVYFQMNSLKPEDTAVYYCAAAAKSWLFDYWGQGTLVTVSS has what recorded polyreactivity (PSR sort gate)?
A. high polyreactivity

Q. Could you tell me which polyreactivity (PSR sort gate) is on file for QVQLVESGGGLVQAGGSLRLSCAASGRIFPHNAMGWYRQAPGKERELVAAITKSGDDTYYADSVKGRFTISRDNAKNTVYLQMNSLKPEDTAVYYCAAYLSWYDYWGQGTQVTVSS ?
A. low polyreactivity

Q. Name the recorded polyreactivity (PSR sort gate) for QVQLVESGGGLVQAGGSLRLSCAASGRIFYANAMGWYRQAPGKERELVAAISSGGSTYYADSVKGRFTISRDNAKNTVYLQMNSLKPEDTAVYYCAKDTGSRTDSWTVWHDYWGQGTQVTVSS .
A. low polyreactivity

Q. Given the entry QVQLVESGGGLVQAGGSLRLSCDASGSTIPTYAMGWYRQAPGKERELVASISVTTGSTYYADSVKGRFTISRDNAKNTVYLNMKSLKPEDTAVYFCAKRTYSRKFRGSYNYWGQGTEVTVSS , report its measured polyreactivity (PSR sort gate).
A. high polyreactivity

Q. So what does the record say about polyreactivity (PSR sort gate) for QVQLVESGGGLVQAGGSLRLSCAASGSTFYKNAMGWYRQAPGKERELVAAITRSGGSTYYADSVKGRFTISRDNAKNTVYLQMNSLKPVDTAVYYCAYYPYGYDYWGQGTQVTVSS ?
A. high polyreactivity

Q. Look at this sequence and give its reported polyreactivity (PSR sort gate). QVQLVESGGGLVQAGGSLRLSCAASGYTFGTYAMGWYRQAPGKERELVAAITWRGGSTYYADSVKGRFTISRDNAKYTFYLQMNSLIPEDTAVYYCNADIKQRSDRYDYWGQGTQVTVSS
A. high polyreactivity

----------
Test: yeast display, Sf9 membrane polyspecificity reagent, FACS + sequencing; frameworks hold sequencing errors
Value kind: polyreactivity (PSR sort gate)

Illustrative cases are given below, each with its answer.
QVQLVESGGRIVQAGGSLRLSCAASGSTFYPYAMGWSRPAPGKEGQFVAAITWSGGSTYADSVKGRFTISRDNAKNTVYLQMNSLKPEDTAVYYCAAQPFVIEGGYRGDYWGQGTQETVSS low polyreactivity
QVQLVESGGGLVQAGGSLRLSCAASGLIFYGNAMGWYREAPGKERELVAAISRRGGRTYYADSVKGRYTISRDNAKNTVYLQMNSLKPEDTAVYYCAAGVPKNGQAGYDYWGQGTQVTVSS high polyreactivity
QVQLVESGGGLVQAGGSLRLSCAASGRIFGRYAMGWYRQAPGKERELVAAISSGGNTYYADSVKGRFTISRDNAKNTVYLQMNSLKPEDTAVYYCKALYYRQPGYDYWGQGTQVTVSS high polyreactivity
QVQLVESGGGLVQAGGSLRLSCAASGSIFYYNTMGWYRQAPGKERELVAAITSTGRTNYADSVKGRFTISRDNAKNTVYLQMNSLKPEDSAVYYCAKRRFGDGDYWGQGTQVTVSS low polyreactivity

Q. Look up polyreactivity (PSR sort gate): QVHLVESGGGLVQAGGSLRVSCAASGSIFPDNAMGWYTQAPGKERELVAAITFSGGRTYYADSVKGRFTISRDNAKNTVYLQMNSQKPEDTAVYYCATAKGVKLYRYPDYSGYYPYDYWGQGTQVTVSS
A. high polyreactivity

----------
Assay: yeast display, Sf9 membrane polyspecificity reagent, FACS + sequencing; frameworks hold sequencing errors
Value kind: polyreactivity (PSR sort gate)

Completed entries (count: 4):
QVHLVESGGGLLQAGGSLRLSCAASGSIFAYNAMGWYREAPRKERELVASITNGGSTYYADSVKGRFTISRYNAKNSVYLQMKSLKPEDTAVYYCNTDFDGYSVGYDGYWGQGTQVTVSA low polyreactivity
QVQLVESGGGLVQAGGSLRLSCAASGSTFFNYAMGLYRQAPGKERELVAAITSVGSTYYADSVKGRFTISRDNAKYTVYLQMNSLKPEDTAVYYCNAESYFWDFYDYDHWGQGTQVTVSS low polyreactivity
QVQLVESVGGLVQEGGSLRLSCAASGSIRYAMGRYRQAPGKERELDAAISGRGGNTYYADSVKGSFTISRDNAKNTVYLQMNSLKPEDTAVYYCATRGNRVLTGTRYDYWGQGTQITVSS high polyreactivity
QVQLVESGGGLDQAGGSLRLSCAASGSIFGNNAMGWYRQAPGKERELVASISSSSGSTNYADSVKGRFTISRDNAKNTVYVQMNSLKPEDTAVYYCAARWRYWSRKYDYWGQGTQVTVSS high polyreactivity

Now look at this entry.
Q. Please report the recorded polyreactivity (PSR sort gate) for QVQLVESGGGLVQAGGSLRLSCAASGRTFYRNAMGWYRQATGKEREFVAVISVSGGSTYYADSVKGRFTISRDYAKNTVYLQMNSLKPEDTAVYYCGKRGPVRKTAYEYWGQGTQVTVSS .
A. low polyreactivity

----------
Assay: yeast display, Sf9 membrane polyspecificity reagent, FACS + sequencing; frameworks hold sequencing errors
Value kind: polyreactivity (PSR sort gate)

PVQLVESGGGFVQAGGSLRLSCAASGFTFYVNAMGWYRQAPGKERELVAAISGSGGSTYYADSVKGRFTISRDNAKNTVYLQMNSLKPEDTAGYYCAADAYNPPYWDDPYDYWGQGTQVTVSS high polyreactivity
QVQLVESGGGLVQAGGSLRLSCAASGSTFDPYAMGWYRQAPGKERELVAAITGGGSTNYADSVKGRFTISRDNAKNTVYLQMNSLKPEDTAVYYCAATIPKPYHSGLRLLGQGTQVTVSS low polyreactivity
QVQLVESGGGLVQAGGSLRLRCAASGSTFAYYAMGWYRQAPGKDRELVARIRSSGVSTYYADSVKGRFTISRDNPNNTVSLQMNTLKPEDTAGYYCHTAYAGVRYDSWGQGTQVTVSS low polyreactivity
QVQLVESGGGLVQAGGSLRLSCAASGRTFISIVMAWYRQAPGKERELVAAIRSSGRTYYADSVKGRFTISRDNAKITVYLQINSLKPVDTAVYYCAAPGGLLGSGYWGQGTLVTVSS low polyreactivity
QDQLVESGGGLVQAGCSLRLSCAASGSTIPYNAMGWYRQAPGKERELVAAITWRAGRTYYADSVKGRFTISRDNAKITVYLQMNSLKAEDTAVYDCAKSYQRGVNHYEYWGQGTQVTVSS high polyreactivity
QVQLVESGGGLVQAGGSLRLSCASSGSTFSSYAMGRYRQAPGKERELVAAITRGGSTNYADSVKGRFTISRDNAKNTVYLQMNSLKPEYTAVYYCAADGPIVGTMDYWGQGTQVTVSS high polyreactivity

Q. Recorded polyreactivity (PSR sort gate) for QVQLVESGGGLVQAGGSLRLSCAASGRIFRYYAMGWYIQAPGKERELVAAISKSGGGTFYADSVKGRFTISRDNAKNTVYLQMNSLKPEDTEVYYCAARDKGLGKHDYWGQGTQVTVSS , please?
A. low polyreactivity

Q. Fill in the blank: the reported polyreactivity (PSR sort gate) of QVQLVESGGGLVQAGGSLRLSCAASGIIFEPNAMGWYRQAPGKERELVAAIDSGGITYYADSVKGRFTISRDNAKNTVYLEMNSLKPEDTAVYYCAKRAYTRQYWYGYGYWGQGTQVTVSS is ____.
A. high polyreactivity

Q. Which measured polyreactivity (PSR sort gate) value corresponds to QDLLVESGGGLVQAGGSLRLSCAASGRTFWDYTMGWYRQAPGKDRELVASITRTCRTNYADSVKGRFTISRDNAKNTVYLQMNSLKTEDTAVYYCAAEVGYQGWYPSGYKFDYWGQGTQVTVSS ?
A. high polyreactivity

Q. Dear colleague, I am looking for the recorded polyreactivity (PSR sort gate) of the following sequence: QVQLVESGGGLVQAGGSLRLSCAASGSTFTWYAMGWYRQAPGKERELVAAIRWSGGNTYYADSVKGRFTISRDTAKNTVYLHMNSLKPEDTGVYYCAAVSRTYSLQMYYWGQGTQVTVSS
A. high polyreactivity

Q. Bench note: what polyreactivity (PSR sort gate) did QVQLVESGGGLVQAGGSLRLSCAASGRIFHANAMGWYRQAPGKERELVAGISRNGGRTYYADSVKGRFTISRDNAKNTVYLQMNSLKPEDTAVYYCAKGHKFRFDYWGQGTQVTVSS show?
A. high polyreactivity
